biological target: Acetylcholinesterase (Electrophorus electricus, UniProt O42275)
Sequence (O42275 whole entry): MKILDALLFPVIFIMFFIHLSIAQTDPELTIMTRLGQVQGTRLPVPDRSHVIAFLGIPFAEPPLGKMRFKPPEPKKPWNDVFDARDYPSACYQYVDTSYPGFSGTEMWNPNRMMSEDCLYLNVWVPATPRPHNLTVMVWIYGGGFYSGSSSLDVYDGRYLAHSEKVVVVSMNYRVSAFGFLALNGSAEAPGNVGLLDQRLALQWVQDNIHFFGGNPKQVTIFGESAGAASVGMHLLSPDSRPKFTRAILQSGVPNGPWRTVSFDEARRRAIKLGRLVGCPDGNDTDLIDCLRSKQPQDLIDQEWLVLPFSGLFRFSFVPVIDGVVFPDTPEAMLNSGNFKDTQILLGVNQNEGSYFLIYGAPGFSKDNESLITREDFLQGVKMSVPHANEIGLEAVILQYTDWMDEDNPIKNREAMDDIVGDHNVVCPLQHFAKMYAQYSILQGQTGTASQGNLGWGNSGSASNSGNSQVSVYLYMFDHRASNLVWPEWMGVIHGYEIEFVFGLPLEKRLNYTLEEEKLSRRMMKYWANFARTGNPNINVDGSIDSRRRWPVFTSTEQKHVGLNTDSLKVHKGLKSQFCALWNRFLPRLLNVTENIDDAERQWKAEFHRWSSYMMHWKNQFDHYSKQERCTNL
With a cut-off of 100 nM, any IC50 strictly below it is called Criterion met; any IC50 meeting it or above is called Criterion not met.

These recorded examples may help you get a feel for the data.
MOLECULE: Cc1nc(C)c(COc2ccc(CC(O)C(=O)NCCCCNc3c4c(nc5ccccc35)CCCC4)cc2OCc2nc(C)c(C)nc2C)nc1C (stereo unspecified)
ASSIGNED LABEL: Criterion not met

MOLECULE: Cc1nc(C)c(COc2ccc(CC(O)C(=O)NCCNc3c4c(nc5ccccc35)CCCC4)cc2OCc2nc(C)c(C)nc2C)nc1C (stereo unspecified)
ASSIGNED LABEL: Criterion not met

MOLECULE: O=C(/C=C/c1ccc(O)cc1)NCCCCNc1c2c(nc3ccccc13)CCCC2
ASSIGNED LABEL: Criterion not met

MOLECULE: Cc1nc(C)c(COc2ccc(/C=C/C(=O)NCCCCCCNc3c4c(nc5ccccc35)CCCC4)cc2)nc1C
ASSIGNED LABEL: Criterion not met

MOLECULE: O=C(/C=C/c1ccc(O)cc1)NCCCNc1c2c(nc3ccccc13)CCCC2
ASSIGNED LABEL: Criterion not met

MOLECULE: Cc1nc(C)c(COc2ccc(/C=C/C(=O)NCCCCCCCCNc3c4c(nc5ccccc35)CCCC4)cc2OCc2nc(C)c(C)nc2C)nc1C
ASSIGNED LABEL: Criterion not met

Query: Given the entry "Cc1nc(C)c(COc2ccc(/C=C/C(=O)NCCNc3c4c(nc5ccccc35)CCCC4)cc2)nc1C" , would its reported IC50 be below 100 nM?
Result: Criterion met

Query: Given the entry "COc1cc(/C=C/C(=O)NCCCNc2c3c(nc4ccccc24)CCCC3)cc(OC)c1OCc1nc(C)c(C)nc1C" , would its reported IC50 be below 100 nM?
Result: Criterion not met

Query: Given the entry "COc1cc(/C=C/C(=O)NCCCNc2c3c(nc4ccccc24)CCCC3)ccc1OCc1nc(C)c(C)nc1C" , would its reported IC50 be below 100 nM?
Result: Criterion met

Query: Given the entry "O=C(/C=C/c1ccc(O)cc1)NCCNc1c2c(nc3ccccc13)CCCC2" , would its reported IC50 be below 100 nM?
Result: Criterion not met

Query: Given the entry "COc1cc(/C=C/C(=O)NCCCCCCCCNc2c3c(nc4ccccc24)CCCC3)ccc1OCc1nc(C)c(C)nc1C" , would its reported IC50 be below 100 nM?
Result: Criterion not met

* * *

biological target: Acetylcholinesterase (Electrophorus electricus, UniProt O42275)
OBSERVATION TYPE: pIC50
Keep it numeric: pIC50 is minus log10 of the concentration in mol/L.

COMPOUND: COc1cc(/C=C/C(=O)NCCCCNc2c3c(nc4ccccc24)CCCC3)cc(OC)c1OCc1nc(C)c(C)nc1C
MEASURED ON: Acetylcholinesterase (Electrophorus electricus, UniProt O42275)
pIC50: 6.75

COMPOUND: COc1cc(/C=C/C(=O)NCCCCNc2c3c(nc4ccccc24)CCCC3)cc(OC)c1O
MEASURED ON: Acetylcholinesterase (Electrophorus electricus, UniProt O42275)
pIC50: 7.19

COMPOUND: Cc1nc(C)c(COc2ccc(CC(O)C(=O)NCCCCCCCCNc3c4c(nc5ccccc35)CCCC4)cc2OCc2nc(C)c(C)nc2C)nc1C (stereo not drawn)
MEASURED ON: Acetylcholinesterase (Electrophorus electricus, UniProt O42275)
pIC50: 7.19

COMPOUND: COc1cc(/C=C/C(=O)NCCNc2c3c(nc4ccccc24)CCCC3)ccc1OCc1nc(C)c(C)nc1C
MEASURED ON: Acetylcholinesterase (Electrophorus electricus, UniProt O42275)
pIC50: 7.48

COMPOUND: O=C(/C=C/c1ccc(O)cc1)NCCCCCCCCNc1c2c(nc3ccccc13)CCCC2
MEASURED ON: Acetylcholinesterase (Electrophorus electricus, UniProt O42275)
pIC50: 6.28

Query: Give Acetylcholinesterase (Electrophorus electricus, UniProt O42275) pIC50 for "COc1cc(/C=C/C(=O)NCCCCNc2c3c(nc4ccccc24)CCCC3)ccc1OCc1nc(C)c(C)nc1C"
Result: 6.73

Query: Give Acetylcholinesterase (Electrophorus electricus, UniProt O42275) pIC50 for "Cc1nc(C)c(COc2ccc(/C=C/C(=O)NCCNc3c4c(nc5ccccc35)CCCC4)cc2OCc2nc(C)c(C)nc2C)nc1C"
Result: 6.96

Query: Give Acetylcholinesterase (Electrophorus electricus, UniProt O42275) pIC50 for "COc1cc(/C=C/C(=O)NCCCCCCCCNc2c3c(nc4ccccc24)CCCC3)cc(OC)c1OCc1nc(C)c(C)nc1C"
Result: 6.84

* * *

target: Acetylcholinesterase (Electrophorus electricus, UniProt O42275)
We begin with a simple list: items and their reported IC50.
Return type: number; implicit unit nM.

// below: answered compounds
COMPOUND: O=C(/C=C/c1ccc(O)cc1)NCCCCCCNc1c2c(nc3ccccc13)CCCC2
RESULT NUMBER: 44.6
--
COMPOUND: Cc1nc(C)c(COc2ccc(CC(O)C(=O)NCCCCCCNc3c4c(nc5ccccc35)CCCC4)cc2OCc2nc(C)c(C)nc2C)nc1C (stereo not drawn)
RESULT NUMBER: 270

Query: Give Acetylcholinesterase (Electrophorus electricus, UniProt O42275) IC50 for "COc1cc(/C=C/C(=O)NCCCCCCNc2c3c(nc4ccccc24)CCCC3)ccc1OCc1nc(C)c(C)nc1C"
Result: 14.7

Query: Give Acetylcholinesterase (Electrophorus electricus, UniProt O42275) IC50 for "Cc1nc(C)c(COc2ccc(/C=C/C(=O)NCCCNc3c4c(nc5ccccc35)CCCC4)cc2)nc1C"
Result: 205

Query: Give Acetylcholinesterase (Electrophorus electricus, UniProt O42275) IC50 for "Cc1nc(C)c(COc2ccc(/C=C/C(=O)NCCCCNc3c4c(nc5ccccc35)CCCC4)cc2OCc2nc(C)c(C)nc2C)nc1C"
Result: 139

Query: Give Acetylcholinesterase (Electrophorus electricus, UniProt O42275) IC50 for "Cc1nc(C)c(COc2ccc(/C=C/C(=O)NCCCCNc3c4c(nc5ccccc35)CCCC4)cc2)nc1C"
Result: 334

Query: Give Acetylcholinesterase (Electrophorus electricus, UniProt O42275) IC50 for "COc1cc(/C=C/C(=O)NCCNc2c3c(nc4ccccc24)CCCC3)cc(OC)c1OCc1nc(C)c(C)nc1C"
Result: 65.3

* * *

assay: in vitro; conditions: human, HepG2 cells
Description: Cytotoxicity against human HepG2 cells assessed as cell viability at 2.5 uM after 24 hrs by MTT assay relative to control
OBSERVATION TYPE: viability at 24 h, 2.5 µM

Query: Quick one: viability at 24 h, 2.5 µM for "COc1cc(/C=C/C(=O)NCCCCCCNc2c3c(nc4ccccc24)CCCC3)cc(OC)c1O" ?
Result: 96.3%

* * *

target: Acetylcholinesterase (Electrophorus electricus)
pIC50: −log10 of the molar value.
# cutoff 8 applies to pIC50; >= gives condition met, < gives condition not met

These recorded examples may help you get a feel for the data.
STRUCTURE SMILES: COc1cc(/C=C/C(=O)NCCCCCCNc2c3c(nc4ccccc24)CCCC3)cc(OC)c1OCc1nc(C)c(C)nc1C
ASSIGNED LABEL: condition met
//
STRUCTURE SMILES: Cc1nc(C)c(COc2ccc(/C=C/C(=O)NCCCCCCNc3c4c(nc5ccccc35)CCCC4)cc2OCc2nc(C)c(C)nc2C)nc1C
ASSIGNED LABEL: condition not met
//
STRUCTURE SMILES: COc1cc(/C=C/C(=O)NCCCNc2c3c(nc4ccccc24)CCCC3)cc(OC)c1O
ASSIGNED LABEL: condition not met
//
STRUCTURE SMILES: COc1cc(/C=C/C(=O)NCCCCCCCCNc2c3c(nc4ccccc24)CCCC3)cc(OC)c1O
ASSIGNED LABEL: condition not met

Query: Is pIC50 at least 8? Consider "COc1cc(/C=C/C(=O)NCCCCCCNc2c3c(nc4ccccc24)CCCC3)cc(OC)c1O"
Result: condition met

Query: Is pIC50 at least 8? Consider "COc1cc(/C=C/C(=O)NCCNc2c3c(nc4ccccc24)CCCC3)cc(OC)c1O"
Result: condition not met

Query: Is pIC50 at least 8? Consider "Cc1nc(C)c(COc2ccc(/C=C/C(=O)NCCCCCCCCNc3c4c(nc5ccccc35)CCCC4)cc2)nc1C"
Result: condition not met

* * *

test: in vitro; conditions: human, HepG2 cells
Description: Cytotoxicity against human HepG2 cells assessed as cell viability at 10 uM after 24 hrs by MTT assay relative to control
OBSERVATION TYPE: viability at 24 h, 10 µM (%)
Return type: number; implicit unit %.

Query: Quick one: viability at 24 h, 10 µM for "COc1cc(/C=C/C(=O)NCCCCCCNc2c3c(nc4ccccc24)CCCC3)cc(OC)c1O" ?
Result: 81.8

* * *

assay: in vitro; settings: human, HepG2 cells
Description: Cytotoxicity against human HepG2 cells assessed as cell viability at 1.25 uM after 24 hrs by MTT assay relative to control
OBSERVATION TYPE: viability at 24 h, 1.25 µM (%)
Return type: number; implicit unit %.

Query: Quick one: viability at 24 h, 1.25 µM for "COc1cc(/C=C/C(=O)NCCCCCCNc2c3c(nc4ccccc24)CCCC3)cc(OC)c1O" ?
Result: 98.4
